TEST_TARGET: Furin (108-574-Tev-Flag-His) enzyme (Homo sapiens, UniProt P09958)
Construct: Furin (108-574-Tev-Flag-His) enzyme was expressed and purified from CHO cells; TEV cleavage site (C); FLAG (C); His (C); made in house; host or cells: CHO cells
Sequence (P09958 108-574): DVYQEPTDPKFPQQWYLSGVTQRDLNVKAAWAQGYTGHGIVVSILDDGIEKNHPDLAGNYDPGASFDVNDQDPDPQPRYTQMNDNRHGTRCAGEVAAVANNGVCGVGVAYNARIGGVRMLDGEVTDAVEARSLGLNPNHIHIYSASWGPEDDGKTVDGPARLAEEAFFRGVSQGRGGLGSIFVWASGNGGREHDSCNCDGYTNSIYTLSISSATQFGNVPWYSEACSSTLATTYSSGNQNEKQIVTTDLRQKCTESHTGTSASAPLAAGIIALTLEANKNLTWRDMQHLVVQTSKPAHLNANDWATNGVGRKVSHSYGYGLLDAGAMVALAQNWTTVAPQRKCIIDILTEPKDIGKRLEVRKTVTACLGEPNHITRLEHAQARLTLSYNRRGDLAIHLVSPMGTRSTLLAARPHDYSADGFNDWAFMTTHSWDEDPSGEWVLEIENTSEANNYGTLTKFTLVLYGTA
ASSAY_EXPLANATION: Furin enzyme assay
Format: biochemical
Counter-ions that a name gives are not always drawn.
TEST_READOUT: furin enzyme pIC50
Give bare numbers.

Reference set, count: 6
Which measured furin enzyme pIC50 value corresponds to CC(=O)NCC1CCN(Cc2cc(Oc3cnc(N4CCN(CCS(C)(=O)=O)CC4)nc3)nc(-c3cc(Cl)cc(Cl)c3)c2)CC1 [Example 285] ?
8.1

Which measured furin enzyme pIC50 value corresponds to CN1C[C@@H]2C[C@H]1CN2c1cnc(Oc2cc(CN3CCC(CC(=O)O)CC3)cc(-c3cc(Cl)cc(Cl)c3)n2)cn1 [Example 346] ?
8.5

Which measured furin enzyme pIC50 value corresponds to CC(=O)NCC1CCN(Cc2cc(Oc3ccc(N4CCN(C)CC4)nc3)nc(-c3cc(Cl)cc(Cl)c3)c2)CC1 [Example 200] ?
9.1

Which measured furin enzyme pIC50 value corresponds to O=C(O)CC1CCN(Cc2cc(Oc3cnc(N4CCN(C5CC(O)C5)CC4)nc3)nc(-c3cc(Cl)cc(Cl)c3)c2)CC1 (stereo not shown) [Example 22] ?
9.5

Which measured furin enzyme pIC50 value corresponds to O=C(O)CC1CCN(Cc2cc(Oc3cnc(N4CCNCC4)nc3)nc(-c3cc(Cl)cc(Cl)c3)c2)CC1 [Example 206] ?
8.6

Which measured furin enzyme pIC50 value corresponds to CC(=O)NCC1(O)CCN(Cc2cc(Oc3cnc(N4CCNCC4)c(F)c3)nc(-c3cc(Cl)cc(Cl)c3)c2)CC1 [Example 91, hydrochloride] ?
8.4

Now consider the entry below.
Which measured furin enzyme pIC50 value corresponds to O=C(O)CC1CCN(Cc2cc(Oc3cnc(N4CCN(CCC5(O)CC5)CC4)nc3)nc(-c3cc(Cl)cc(Cl)c3)c2)CC1 [Example 278] ?
9.4
